Target: ALK I1171N/D1203N (Homo sapiens (Human), UniProt Q9UM73, D1203N/I1171N)
Sequence (Q9UM73 1116-1392 I1171N/D1203N): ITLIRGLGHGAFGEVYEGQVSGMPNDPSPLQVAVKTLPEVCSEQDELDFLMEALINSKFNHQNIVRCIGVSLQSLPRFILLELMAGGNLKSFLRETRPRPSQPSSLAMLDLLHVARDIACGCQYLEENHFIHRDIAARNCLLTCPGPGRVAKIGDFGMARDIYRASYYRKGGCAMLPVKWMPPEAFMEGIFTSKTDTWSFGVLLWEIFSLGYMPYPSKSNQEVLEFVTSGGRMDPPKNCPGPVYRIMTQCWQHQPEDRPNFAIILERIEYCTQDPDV
Test: Biochemical kinase assay, ALK I1171N/D1203N
Conditions: apparent inhibitory constant, kinase domain, Morrison equation; read-out: ALK-I1171N-D1203N Ki^app
Method: First, 250 nL of compound dissolved in DMSO (100-fold of the desired concentration) was dispensed into a 384-well plate. […] The plate was sealed and read by SpectraMax Paradigm at λ=485 nm every 2 minutes for 120 minutes at 30° C. Initial rates of reaction (v) were calculated from the change in fluorescence intensity over time during the initial, linear portion of the reaction. […]
Reported Property: Ki

Consider the worked cases shown below.
{"columns": ["Molecule", "Experimental System", "Reported Measurement"],
 "data": [
  ["CC(=O)c1nn(CC2CC2)c2c1Cc1cn(C)nc1-c1ccc(F)cc1[C@@H](C)Oc1cc-2cnc1N", "ALK I1171N/D1203N (Homo sapiens (Human), UniProt Q9UM73, D1203N/I1171N)", "50 to 500 nM"],
  ["C[C@H]1Oc2cc(cnc2N)-c2c(c(S(C)(=O)=O)nn2CC2CC2)Cc2cn(C)nc2-c2ccc(F)cc21", "ALK I1171N/D1203N (Homo sapiens (Human), UniProt Q9UM73, D1203N/I1171N)", "50 to 500 nM"],
  ["CCn1nc(C(N)=O)c2c1-c1cnc(N)c(c1)O[C@H](C)c1cc(F)ccc1-c1nn(C)cc1C2", "ALK I1171N/D1203N (Homo sapiens (Human), UniProt Q9UM73, D1203N/I1171N)", "< 50 nM"]
]}

List Ki for every entry below, keeping the order given.
1. CSc1nn(CC2CC2)c2c1Cc1cn(C)nc1-c1ccc(F)cc1[C@@H](C)Oc1cc-2cnc1N
2. C[C@H]1Oc2cc(cnc2N)-c2c(c(C(=O)N3CC(F)(F)C3)nn2CC2CC2)Cc2cn(C)nc2-c2ccc(F)cc21

50 to 500 nM
< 50 nM

List Ki for every entry below, keeping the order given.
1. CCn1nc(C(=O)N(C)C)c2c1-c1cnc(N)c(c1)O[C@H](C)c1cc(F)ccc1-c1ncccc1C2
2. CON(C)C(=O)c1nn(CC2CC2)c2c1Cc1cn(C)nc1-c1ccc(F)cc1[C@@H](C)Oc1cc-2cnc1N
3. Cc1cc2n(n1)-c1ccc(F)cc1[C@@H](C)Oc1cc(cnc1N)-c1c(nn(C)c1C#N)C2=O

["< 50 nM", "< 50 nM", "< 50 nM"]

List Ki for every entry below, keeping the order given.
1. C[C@H]1Oc2cc(cnc2N)-c2c(C#N)nn(C(=O)N(C)C)c2Cc2cccnc2-c2ccc(F)cc21
2. C[C@H]1Oc2cc(cnc2N)-c2c(c([S+](C)[O-])nn2CC2CC2)Cc2cn(C)nc2-c2ccc(F)cc21 (stereo partly drawn)
3. C[C@H]1Oc2cc(cnc2N)-c2c(nn(C)c2C#N)C(=O)c2cccnc2-c2ccc(F)cc21
4. C[C@H]1Oc2cc(cnc2N)-c2c(CC3CC3)nn(C(=O)N(C)C)c2Cc2cccnc2-c2ccc(F)cc21

1: < 50 nM; 2: < 50 nM; 3: < 50 nM; 4: < 50 nM

====

Kindly supply the reported IC50 values for the records listed here.
Molecular target: Ba/F3 ETV6-TRKB (Homo sapiens)
Sequence (Q16620 32-822 limits assumed, change not shown): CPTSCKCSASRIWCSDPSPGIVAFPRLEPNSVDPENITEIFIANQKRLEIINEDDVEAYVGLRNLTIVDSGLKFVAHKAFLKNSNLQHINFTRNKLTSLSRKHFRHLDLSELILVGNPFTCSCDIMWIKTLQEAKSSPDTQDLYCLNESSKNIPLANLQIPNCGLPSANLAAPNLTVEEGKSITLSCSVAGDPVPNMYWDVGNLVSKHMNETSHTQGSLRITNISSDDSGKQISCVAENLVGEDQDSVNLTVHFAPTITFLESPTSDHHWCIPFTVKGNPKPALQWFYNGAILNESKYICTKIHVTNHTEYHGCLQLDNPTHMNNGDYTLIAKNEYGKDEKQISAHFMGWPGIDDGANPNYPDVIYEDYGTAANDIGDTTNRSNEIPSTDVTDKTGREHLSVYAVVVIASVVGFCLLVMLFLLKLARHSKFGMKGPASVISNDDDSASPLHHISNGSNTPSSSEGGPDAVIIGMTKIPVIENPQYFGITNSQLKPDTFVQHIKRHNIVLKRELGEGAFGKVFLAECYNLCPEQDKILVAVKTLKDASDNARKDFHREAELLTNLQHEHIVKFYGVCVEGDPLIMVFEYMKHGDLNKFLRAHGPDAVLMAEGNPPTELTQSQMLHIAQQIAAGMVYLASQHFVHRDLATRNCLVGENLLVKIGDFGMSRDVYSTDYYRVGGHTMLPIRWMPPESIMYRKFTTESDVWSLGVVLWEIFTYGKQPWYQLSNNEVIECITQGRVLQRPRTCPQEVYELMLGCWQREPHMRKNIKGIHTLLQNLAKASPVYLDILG
Experiment: Ba/F3 cell proliferation assay, ETV6-TRKB
Type: cell-based
Details: Ba/F3 stable cells, 72 hours, CellTiter-Glo; read-out: ETV6-TRKB IC50

List IC50 for every entry below, keeping the order given.
1. C[C@H]1Oc2cc(cnc2N)-c2c(n[nH]c2C#N)C(=O)c2cccnc2-c2c(F)cc(F)cc21 [Example 77]
2. C[C@H]1Oc2cc(cnc2N)-c2c(CC3CC3)nn(C(=O)N(C)C)c2Cc2cn(C)nc2-c2c(F)cc(F)cc21 [Example 23]

["50 to 500 nM", "> 500 nM"]

List IC50 for every entry below, keeping the order given.
1. C[C@H]1Oc2cc(cnc2N)-c2c(c(C(=O)N3CCC3)nn2CC2CC2)Cc2cn(C)nc2-c2ccc(F)cc21 [Example 9]
2. CCc1c2c(nn1C)C(=O)c1cccnc1-c1ccc(F)cc1[C@@H](C)Oc1cc-2cnc1N [Example 54]
3. C[C@H]1Oc2cc(cnc2N)-c2c(c(C(=O)N(C)C)nn2CC2CC2)Cc2cccnc2-c2c(F)cc(F)cc21 [Example 45]
4. C[C@H]1Oc2cc(cnc2N)-c2c(C#N)nn(C)c2C(=O)c2cccnc2-c2c(F)cc(F)cc21 [Example 22]
5. C[C@H]1Oc2cc(cnc2N)-c2c(nn(C)c2C#N)C(=O)c2scnc2-c2c(F)cc(F)cc21 [Example 81]
6. CCn1nc(C(N)=O)c2c1-c1cnc(N)c(c1)O[C@H](C)c1cc(F)ccc1-c1nn(C)cc1C2 [Example 5]
7. C[C@H]1Oc2cc(cnc2N)-c2c(C#N)nn(C)c2C(O)c2cn(C)nc2-c2c(F)cc(F)cc21 (stereo partly drawn) [Example 79]

1. > 500 nM
2. 0.1 to 50 nM
3. > 500 nM
4. > 500 nM
5. > 500 nM
6. 50 to 500 nM
7. > 500 nM

List IC50 for every entry below, keeping the order given.
1. Cc1cc2n(n1)-c1c(F)cc(F)cc1[C@@H](C)Oc1cc(cnc1N)-c1c(nn(C)c1C#N)C2=O [Example 68]
2. C[C@H]1Oc2cc(cnc2N)-c2c(c(C(=O)N3CCC(F)(F)C3)nn2CC2CC2)Cc2cn(C)nc2-c2ccc(F)cc21 [Example 12]
3. Cc1cc2n(n1)-c1ccc(F)cc1[C@@H](C)Oc1cc(cnc1N)-c1c(C#N)nn(C)c1C2=O [Example 18]
4. C[C@H]1Oc2cc(cnc2N)-c2c(c(C(=O)N(C)C)nn2CC2CC2)Cc2cccnc2-c2ccc(F)cc21 [Example 10]

["> 500 nM", "> 500 nM", "> 500 nM", "> 500 nM"]

List IC50 for every entry below, keeping the order given.
1. CCN(C)C(=O)c1nn(CC2CC2)c2c1Cc1cn(C)nc1-c1ccc(F)cc1[C@@H](C)Oc1cc-2cnc1N [Example 38]
2. C[C@H]1Oc2cc(cnc2N)-c2c(nn(C)c2C#N)Oc2cccnc2-c2c(F)cc(F)cc21 [Example 61]

1: > 500 nM; 2: 50 to 500 nM

====

Biological target: Ba/F3 EML4-ALK v1 I1171N (Homo sapiens (Human), UniProt Q9HC35+Q9UM73, I1171N)
Sequence (Q9UM73 other isoform, or with tags, fused parts or gaps I1171N): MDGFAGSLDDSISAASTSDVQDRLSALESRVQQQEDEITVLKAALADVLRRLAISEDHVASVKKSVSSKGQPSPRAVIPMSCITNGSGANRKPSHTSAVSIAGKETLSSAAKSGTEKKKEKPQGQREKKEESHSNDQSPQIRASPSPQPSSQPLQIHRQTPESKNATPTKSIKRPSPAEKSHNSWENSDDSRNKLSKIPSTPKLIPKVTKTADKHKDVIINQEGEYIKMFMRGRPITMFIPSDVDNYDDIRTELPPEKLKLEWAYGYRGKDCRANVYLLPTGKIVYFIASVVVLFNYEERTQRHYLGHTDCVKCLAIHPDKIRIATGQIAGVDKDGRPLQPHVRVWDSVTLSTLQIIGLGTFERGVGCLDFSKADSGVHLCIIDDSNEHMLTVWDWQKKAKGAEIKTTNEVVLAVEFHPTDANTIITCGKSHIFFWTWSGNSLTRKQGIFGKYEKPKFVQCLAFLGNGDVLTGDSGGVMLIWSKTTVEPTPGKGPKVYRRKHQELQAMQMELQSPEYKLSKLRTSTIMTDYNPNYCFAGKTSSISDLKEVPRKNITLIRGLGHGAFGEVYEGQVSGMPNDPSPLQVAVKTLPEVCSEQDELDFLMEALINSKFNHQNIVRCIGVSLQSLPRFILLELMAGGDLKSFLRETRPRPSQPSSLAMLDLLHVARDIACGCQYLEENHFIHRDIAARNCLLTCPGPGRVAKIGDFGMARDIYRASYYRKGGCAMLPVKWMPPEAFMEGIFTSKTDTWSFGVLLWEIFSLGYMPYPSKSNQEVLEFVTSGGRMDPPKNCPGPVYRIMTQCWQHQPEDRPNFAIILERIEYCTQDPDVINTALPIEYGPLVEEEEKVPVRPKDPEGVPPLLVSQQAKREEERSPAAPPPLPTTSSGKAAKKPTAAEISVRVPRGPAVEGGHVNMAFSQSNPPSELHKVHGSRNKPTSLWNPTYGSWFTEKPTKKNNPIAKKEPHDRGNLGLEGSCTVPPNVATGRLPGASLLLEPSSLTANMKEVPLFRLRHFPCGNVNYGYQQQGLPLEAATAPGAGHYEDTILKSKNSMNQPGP
Assay: Ba/F3 cell proliferation assay, EML4-ALK v1 I1171N
Conditions: Ba/F3 stable cells, 72 hours, CellTiter-Glo
pIC50: −log10 of the molar value.
Kindly supply the reported pIC50 values for the records listed here.

Consider the worked cases shown below.
{"columns": ["Smiles Input", "pIC50"],
 "data": [
  ["Cc1ocnc1-c1nn(CC2CC2)c2c1Cc1cccnc1-c1ccc(F)cc1[C@@H](C)Oc1cc-2cnc1N", "7.30 to 10.00"],
  ["C[C@H]1Oc2cc(cnc2N)-c2c(C#N)nn(C(=O)N(C)C)c2Cc2cccnc2-c2c(F)cc(F)cc21", "6.30 to 7.30"],
  ["CCn1nc(C(=O)N(C)C)c2c1-c1cnc(N)c(c1)O[C@H](C)c1cc(F)cc(F)c1-c1ncccc1C2", "6.30 to 7.30"],
  ["CCn1nc2c(c1C#N)-c1cnc(N)c(c1)O[C@H](C)c1cc(F)ccc1-c1ncccc1C2=O", "7.30 to 10.00"],
  ["C[C@H]1Oc2cc(cnc2N)-c2c(nn(C)c2C#N)C(=O)c2cn(C)nc2-c2c(F)cc(F)cc21", "6.30 to 7.30"]
]}

List pIC50 for every entry below, keeping the order given.
1. CCn1ncc2c1-c1cnc(N)c(c1)O[C@H](C)c1cc(F)ccc1-c1nn(C)cc1C2=O
2. C[C@H]1Oc2cc(cnc2N)-c2c(n[nH]c2C#N)C(=O)c2cccnc2-c2c(F)cc(F)cc21

["< 6.30", "7.30 to 10.00"]

====

Target: Ba/F3 EML4-ALK v1 I1171N/D1203N (Homo sapiens (Human), UniProt Q9HC35+Q9UM73, D1203N/I1171N)
Sequence (Q9UM73 other isoform, or with tags, fused parts or gaps I1171N/D1203N): as the sequence (Q9UM73 other isoform, or with tags, fused parts or gaps I1171N) above, with D642N counted along it
Assay: Ba/F3 cell proliferation assay, EML4-ALK v1 I1171N/D1203N
Details: Ba/F3 stable cells, 72 hours, CellTiter-Glo
pIC50: −log10 of the molar value.
Reported Property: pIC50

List pIC50 for every entry below, keeping the order given.
1. CCn1ncc2c1-c1cnc(N)c(c1)O[C@H](C)c1cc(F)ccc1-c1ncccc1O2 [Example 14]
2. C[C@H]1Oc2cc(cnc2N)-c2c(C#N)nn(C)c2C(O)c2cn(C)nc2-c2c(F)cc(F)cc21 (stereo partly drawn) [Example 79]
3. C[C@H]1Oc2cc(cnc2N)-c2c(c(C(=O)N(C)C)nn2CC2CC2)Cc2cccnc2-c2c(F)cc(F)cc21 [Example 45]

1. 6.30 to 7.30
2. 6.30 to 7.30
3. 7.30 to 10.00

List pIC50 for every entry below, keeping the order given.
1. C[C@H]1Oc2cc(cnc2N)-c2c(c(C#N)nn2CC2CC2)Cc2cccnc2-c2ccc(F)cc21 [Example 66]
2. C[C@H]1Oc2cc(cnc2N)-c2c(C3CCC3)nn(C(=O)N(C)C)c2Cc2cccnc2-c2ccc(F)cc21 [Example 57]
3. CON(C)C(=O)c1nn(CC2CC2)c2c1Cc1cn(C)nc1-c1ccc(F)cc1[C@@H](C)Oc1cc-2cnc1N [Example 34]
4. Cc1cc2n(n1)-c1ccc(F)cc1[C@@H](C)Oc1cc(cnc1N)-c1c(c(C(=O)N(C)C)nn1C1CCC1)C2 [Example 67]
5. C[C@H]1Oc2cc(cnc2N)-c2c(n[nH]c2C#N)C(=O)c2cccnc2-c2c(F)cc(F)cc21 [Example 77]
6. C[C@H]1Oc2cc(cnc2N)-c2c(c(C(=O)N(C)C)nn2CC2CC2)Cc2cccnc2-c2ccc(F)cc21 [Example 10]

1. < 6.30
2. 7.30 to 10.00
3. 7.30 to 10.00
4. 7.30 to 10.00
5. 7.30 to 10.00
6. 7.30 to 10.00

List pIC50 for every entry below, keeping the order given.
1. C[C@H]1Oc2cc(cnc2N)-c2c(CC3CC3)nn(C(=O)N(C)C)c2Cc2cn(C)nc2-c2c(F)cc(F)cc21 [Example 23]
2. C[C@H]1Oc2cc(cnc2N)-c2c(nn(C)c2C#N)C(=O)c2cn(C)nc2-c2c(F)cc(F)cc21 [Example 26]
3. C[C@H]1Oc2cc(cnc2N)-c2c(nn(C)c2C#N)C(=O)c2cccnc2-c2c(F)cc(F)cc21 [Example 21]
4. CCc1c2c(nn1C)C(=O)c1cccnc1-c1ccc(F)cc1[C@@H](C)Oc1cc-2cnc1N [Example 54]
5. C[C@H]1Oc2cc(cnc2N)-c2c(C#N)nn(C)c2C(=O)c2cn(C)nc2-c2c(F)cc(F)cc21 [Example 28]

1: 6.30 to 7.30; 2: 7.30 to 10.00; 3: 7.30 to 10.00; 4: 7.30 to 10.00; 5: 6.30 to 7.30

List pIC50 for every entry below, keeping the order given.
1. C[C@H]1Oc2cc(cnc2N)-c2c(nn(C)c2C#N)C(=O)c2scnc2-c2c(F)cc(F)cc21 [Example 81]
2. Cc1ocnc1-c1nn(CC2CC2)c2c1Cc1cccnc1-c1ccc(F)cc1[C@@H](C)Oc1cc-2cnc1N [Example 3]
3. Cc1cc2n(n1)-c1ccc(F)cc1[C@@H](C)Oc1cc(cnc1N)-c1c(nn(C)c1C#N)C2=O [Example 19]
4. C[C@H]1Oc2cc(cnc2N)-c2c(nn(C)c2C#N)Oc2cccnc2-c2c(F)cc(F)cc21 [Example 61]

7.30 to 10.00
7.30 to 10.00
7.30 to 10.00
7.30 to 10.00
